From: ChEMBL document CHEMBL4425153

- tested-on: Nonstructural protein 5A (Hepatitis C virus)
- measurement-description: Inhibition of wild type HCV genotype 2b NS5A assessed as reduction in viral RNA level by cell based real time PCR method
- details: Hepatitis C virus subtype 2b
readout-type: EC90 (nM)
Numbers only, in nM.

record-smiles	tested-on	readout-type	unit-spec	value-observed
CN(C)[C@@H](C(=O)N1CCC[C@H]1c1ncc(-c2ccc3c(c2)O[C@@H](c2ccccc2)n2c-3cc3cc(-c4cnc([C@@H]5CCCN5C(=O)[C@@H](c5ccccc5)N(C)C)[nH]4)ccc32)[nH]1)c1ccccc1	Nonstructural protein 5A (Hepatitis C virus)	EC90	nM	0.87

Please find the next compound below.
**Q:** Tell us which EC90 value is on record for COC(=O)N[C@H](C(=O)N1CCC[C@H]1c1ncc(-c2ccc3c(c2)O[C@@H](c2ccccc2)n2c-3cc3cc(-c4cnc([C@@H]5CCCN5C(=O)[C@@H](NC(=O)OC)C5CCC(F)(F)CC5)[nH]4)ccc32)[nH]1)C(C)C
**A:** 23
